Target or system: ligand binding domain of human FXR (Homo sapiens (Human), UniProt Q96RI1)
Sequence (Q96RI1 262-486): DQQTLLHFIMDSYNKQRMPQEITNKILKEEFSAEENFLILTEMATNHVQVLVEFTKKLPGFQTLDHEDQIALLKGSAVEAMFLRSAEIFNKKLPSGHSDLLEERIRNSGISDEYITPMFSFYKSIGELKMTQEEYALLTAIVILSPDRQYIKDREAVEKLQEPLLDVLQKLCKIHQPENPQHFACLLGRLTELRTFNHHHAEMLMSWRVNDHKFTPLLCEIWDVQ
Protocol notes: FXR ligand binding assay (LanthaScreen TR-FRET, SRC2-2 peptide recruitment)
Condition info: extent of activation relative to GW4064; read-out: % Efficacy
Below: a set of entries, each annotated with reported Emax.
# unit: % | format: bare number

Observe how each entry below is paired with its result.
O=C(O)c1cc(C(F)(F)F)c2nc(N3C[C@@H]4C[C@H]3C[C@H]4OC(=O)c3c(-c4c(Cl)cccc4Cl)noc3C3CC3)sc2c1
139
O=C(O)c1ccc2nc(N3C[C@@H]4C[C@H]3C[C@H]4OC(=O)c3c(-c4c(Cl)cccc4Cl)noc3C3CC3)sc2c1
138
CN1CCC(S(=O)(=O)NC(=O)c2ccc(N3C[C@@H]4C[C@H]3C[C@H]4OCc3c(-c4c(Cl)cccc4Cl)noc3C3CC3)cc2)CC1
156
O=C(O)c1cc(C2CCOCC2)c2nc(N3C[C@@H]4C[C@H]3C[C@H]4OCc3c(-c4c(F)cccc4Cl)noc3C3CC3)sc2c1
142
O=C(NS(=O)(=O)C1CCOCC1)c1ccc(N2C[C@@H]3C[C@H]2C[C@H]3OCc2c(-c3c(Cl)cccc3Cl)noc2C2CC2)cc1
156

Problem: Specify Emax for `O=C(O)CCc1ccc(N2C(=O)[C@@H]3C[C@H]2C[C@H]3OCc2c(-c3c(Cl)cccc3Cl)noc2C2CC2)cc1` , system ligand binding domain of human FXR (Homo sapiens (Human), UniProt Q96RI1).
Result: 132

Problem: Specify Emax for `O=C(NS(=O)(=O)[C@@H]1CCC[C@H]1O)c1ccc(N2C(=O)[C@@H]3C[C@H]2C[C@H]3OCc2c(-c3c(Cl)cccc3Cl)noc2C2CC2)cc1` , system ligand binding domain of human FXR (Homo sapiens (Human), UniProt Q96RI1).
Result: 203

Problem: Specify Emax for `COC(=O)c1cc(F)c2nc(N3C[C@@H]4C[C@H]3C[C@@H]4OCc3c(-c4c(Cl)cccc4Cl)noc3C3CC3)sc2c1` , system ligand binding domain of human FXR (Homo sapiens (Human), UniProt Q96RI1).
Result: 86

Problem: Specify Emax for `C[C@@H]1[C@@H]2C[C@@H](C[C@H]2OCc2c(-c3c(Cl)cccc3Cl)noc2C2CC2)N1c1ccc(C(=O)O)cc1F` , system ligand binding domain of human FXR (Homo sapiens (Human), UniProt Q96RI1).
Result: 61

Problem: Specify Emax for `O=C(O)c1cc(C(F)(F)F)c2nc(N3C[C@@H]4C[C@H]3C[C@H]4OCc3c(-c4c(Cl)cccc4Cl)noc3C3CC3)sc2c1` , system ligand binding domain of human FXR (Homo sapiens (Human), UniProt Q96RI1).
Result: 150

Problem: Specify Emax for CC(CC(=O)O)c1ccc(N2C[C@@H]3C[C@H]2C[C@H]3OCc2c(-c3c(Cl)cccc3Cl)noc2C2CC2)c(F)c1 (stereo partly drawn) , system ligand binding domain of human FXR (Homo sapiens (Human), UniProt Q96RI1).
Result: 132

Problem: Specify Emax for `CN(CC(=O)O)S(=O)(=O)c1ccc(N2C[C@@H]3C[C@H]2C[C@H]3OCc2c(-c3c(Cl)cccc3Cl)noc2C2CC2)cc1` , system ligand binding domain of human FXR (Homo sapiens (Human), UniProt Q96RI1).
Result: 132
